Taken from PubChem BioAssay AID493013.

Catalogue of molecules with associated CC50
Test system: mammalian cell line viability, cytotoxicity counter-screen
Assay: mammalian cell cytotoxicity, dose response, cytotoxicity control, secondary assay, set 2 (AID 493013)

# MOLECULE, CC50
measured = [
    ("COc1ccc2nc(NC(=O)C(C)Oc3ccccc3)sc2c1 (configuration not stated)", "87.7 µM"),
    ("O=C(COc1ccccc1)Nc1nc2ccccc2s1", "66.7 µM"),
    ("O=C(COc1ccc(Cl)cc1)Nc1nc2ccc(F)cc2s1", "57.2 µM"),
]

IN: Tell me the measured CC50 of Cc1ccc2sc(NC(=O)COc3ccccc3)nc2c1C , please.
OUT: 20.2 µM

IN: Tell me the measured CC50 of CC(C)(Oc1ccc(Cl)cc1)C(=O)Nc1nc2ccccc2s1 , please.
OUT: 72.3 µM

IN: Tell me the measured CC50 of CCOc1ccc2nc(NC(=O)C(C)Oc3ccccc3F)sc2c1 (configuration not stated) , please.
OUT: 67.7 µM

IN: Tell me the measured CC50 of O=C(CCS(=O)(=O)c1ccc(F)cc1)Nc1nnc(-c2cccs2)o1 , please.
OUT: 41.6 µM

IN: Tell me the measured CC50 of Cc1ccccc1C(=O)Nc1nc2ccccc2[nH]1 , please.
OUT: 71.4 µM

IN: Tell me the measured CC50 of N/C(=N\c1nc2cc(Cl)ccc2o1)NC(=O)c1ccccc1 , please.
OUT: 14.5 µM

IN: Tell me the measured CC50 of COc1ccc(Cl)cc1C(=O)Nc1nc2ccccc2[nH]1 , please.
OUT: 25.4 µM

IN: Tell me the measured CC50 of Cc1ccc2oc(/N=C(\N)NC(=O)c3ccccc3)nc2c1 , please.
OUT: 5.79 µM

IN: Tell me the measured CC50 of N/C(=N\c1nc2ccccc2o1)NC(=O)COc1ccc2ccccc2c1 , please.
OUT: 37.3 µM

----------
Catalogue of molecules with associated CC50
System: mammalian cell line viability, cytotoxicity counter-screen
Experiment: mammalian cell cytotoxicity, dose response, cytotoxicity control, secondary assay, set 2 (AID 493013)

Some solved cases for reference:
# MOLECULE_SMILES, DATA_VALUE
records = [
    ("N/C(=N\\c1nc2ccccc2o1)NC(=O)c1ccc(F)cc1", "12.5 µM"),
    ("O=C(COc1cccc2ccccc12)Nc1nc2ccccc2s1", "77.7 µM"),
    ("COc1cccc(-c2ccc(-c3noc(-c4ccccc4F)n3)c(OC)n2)c1", "46.7 µM"),
    ("O=C(Nc1ccccc1)Nc1csc2ccccc12", "31.9 µM"),
    ("c1ccc(Nc2ncnc3c2oc2ccccc23)cc1", "76.9 µM"),
]

Field: next molecule
IN: Tell me the measured CC50 of OCCCc1cn(-c2ccccc2)c2ccccc12 , please.
OUT: 90 µM

----------
Tested on: mammalian cell line viability, cytotoxicity counter-screen
Test: mammalian cell cytotoxicity, dose response, cytotoxicity control, secondary assay, set 2 (AID 493013)
Catalogue of molecules with associated CC50

Some solved cases for reference:
# MOLECULE_SMILES, CC50
records = [
    ("CCC(CC)c1nnc(NC(=O)c2ccc(N3CCCCC3)c([N+](=O)[O-])c2)s1", "41.3 µM"),
    ("N/C(=N\\c1nc2ccccc2o1)NC(=O)c1ccccc1", "7.4 µM"),
]

IN: Tell me the measured CC50 of COC(=O)c1sc(-c2ccc(C(C)(C)C)cc2)cc1NC(=O)CCC(=O)O , please.
OUT: 64.7 µM
